Assay: protein stability index of a GFP-peptide fusion (yeast GPS) (PSI 1-4); higher = more stable; sorted into four equal gates, so the index is relative within each strain
Settings: pdr5∆
Label true when protein stability index is at or above 3; anything below gets false.

# example entries with known answers
q: hey, is protein stability index for this one >= 3? TFIDKERHQKQLNEKLV [YCS4]
a: false

q: hey, is protein stability index for this one >= 3? SPSYSPTSPAYSPTSPS [RPO21]
a: false

More entries:
q: hey, is protein stability index for this one >= 3? TYNEDIPVEILVRRLSD [PRE9]
a: false

q: hey, is protein stability index for this one >= 3? YKVENVTLYWNNAKLLT [ESC2]
a: false

q: hey, is protein stability index for this one >= 3? SDLGTVVFDSNEAPPKT [YMR153W/NUP53]
a: true

q: hey, is protein stability index for this one >= 3? VGRRAANLRVLNSYWVN [RPL15A]
a: false

q: hey, is protein stability index for this one >= 3? ANICLTFLESINGINWR [SIN4]
a: false

q: hey, is protein stability index for this one >= 3? ALFVFYSPNTLGHPDNY [COB]
a: false

q: hey, is protein stability index for this one >= 3? KILPTDIQLKNLFPLKP [SRP68]
a: false

q: hey, is protein stability index for this one >= 3? LAIIGDENPDLLGYTGI [PRE8]
a: false

q: hey, is protein stability index for this one >= 3? GIREKRAREKAEAEAEK [RPL13A]
a: true

All figures here come from the supplement of paper PMC9732359.
